Item-by-item account of OD450 nm
target: T1, human GPC3-His protein (human, UniProt P51654 25-559); assay: ELISA, coated human GPC3, antibody 0.01 nM;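 also: Plate-bound antigen coated at 1 µg/mL, antibody incubated 2 h at 37 °C, binding detected by HRP-conjugated secondary antibody with TMB substrate, read as absorbance at 450 nm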
T1 construct: Bought protein; also called human GPC3 protein; not shown: His tag
Give the value, in units of OD450, as a plain number.

F2.23.8 human-murine chimeric antibody (antibody, human IgG1, kappa, V domains shown) VH: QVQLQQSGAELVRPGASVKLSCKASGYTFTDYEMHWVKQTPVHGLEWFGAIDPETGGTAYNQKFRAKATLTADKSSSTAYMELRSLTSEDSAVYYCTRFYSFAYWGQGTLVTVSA VL: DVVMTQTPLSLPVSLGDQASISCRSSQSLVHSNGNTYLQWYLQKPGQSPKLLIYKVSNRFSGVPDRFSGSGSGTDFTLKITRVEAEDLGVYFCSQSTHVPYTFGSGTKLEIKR | 0.29

Now examine the next entry.
Ask | Given the entry F2.92.1 human-murine chimeric antibody (antibody, human IgG1, kappa, V domains shown) VH: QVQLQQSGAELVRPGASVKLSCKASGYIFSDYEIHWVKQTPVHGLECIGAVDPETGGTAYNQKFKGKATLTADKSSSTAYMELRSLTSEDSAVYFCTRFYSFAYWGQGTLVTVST VL: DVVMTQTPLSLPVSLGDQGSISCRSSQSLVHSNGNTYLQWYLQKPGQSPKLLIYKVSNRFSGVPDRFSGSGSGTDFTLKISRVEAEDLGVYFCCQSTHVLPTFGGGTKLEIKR , report its measured OD450 nm.
Reply | 0.32
